- target: IL16_1, Q14005
- Sequence (Q14005 210-306): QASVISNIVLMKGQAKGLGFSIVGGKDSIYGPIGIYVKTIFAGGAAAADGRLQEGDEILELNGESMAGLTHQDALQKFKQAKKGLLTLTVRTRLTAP
- test-summary: holdup assay
- Set-up: key: below the threshold = too weak to quantify, mostly under pKd 3.1 to 4
- conditions-used: plain residues with an end cap or a label only (N-terminal biotin on a linker: ado-ado)
Entries and their pKd values follow.
endpoint-name: pKd

# binder, value-reported
records = [
    ("PTPDLPQTRV [KLHDC7A, Q5VTJ3]", 3.59),
    ("DDASLPVSDV [PLEKHA1, Q9HB21]", 3.89),
    ("ARESQKVSHV [FAM110B, Q8TC76]", 4.17),
    ("TGLWKHETTV [ADGRA3, Q8IWK6]", 4.09),
    ("STKRKLASAV [NCF1, P14598]", 3.52),
]

Attribution: paper PMC9482650
